Overview of recorded IC50 for various compounds
biological target: recombinant full-length WRN protein (1-1432) (Homo sapiens, UniProt Q14191); construct: recombinant full-length WRN protein (1-1432); test: WRN unwinding activity, fluorogenic 384-well assay (Example A); assay type: biochemical; details: WRN unwinding activity, 4 hr; Table 2; read-out: 4 hr UNW pIC50 (converted)
Sequence (Q14191 whole entry): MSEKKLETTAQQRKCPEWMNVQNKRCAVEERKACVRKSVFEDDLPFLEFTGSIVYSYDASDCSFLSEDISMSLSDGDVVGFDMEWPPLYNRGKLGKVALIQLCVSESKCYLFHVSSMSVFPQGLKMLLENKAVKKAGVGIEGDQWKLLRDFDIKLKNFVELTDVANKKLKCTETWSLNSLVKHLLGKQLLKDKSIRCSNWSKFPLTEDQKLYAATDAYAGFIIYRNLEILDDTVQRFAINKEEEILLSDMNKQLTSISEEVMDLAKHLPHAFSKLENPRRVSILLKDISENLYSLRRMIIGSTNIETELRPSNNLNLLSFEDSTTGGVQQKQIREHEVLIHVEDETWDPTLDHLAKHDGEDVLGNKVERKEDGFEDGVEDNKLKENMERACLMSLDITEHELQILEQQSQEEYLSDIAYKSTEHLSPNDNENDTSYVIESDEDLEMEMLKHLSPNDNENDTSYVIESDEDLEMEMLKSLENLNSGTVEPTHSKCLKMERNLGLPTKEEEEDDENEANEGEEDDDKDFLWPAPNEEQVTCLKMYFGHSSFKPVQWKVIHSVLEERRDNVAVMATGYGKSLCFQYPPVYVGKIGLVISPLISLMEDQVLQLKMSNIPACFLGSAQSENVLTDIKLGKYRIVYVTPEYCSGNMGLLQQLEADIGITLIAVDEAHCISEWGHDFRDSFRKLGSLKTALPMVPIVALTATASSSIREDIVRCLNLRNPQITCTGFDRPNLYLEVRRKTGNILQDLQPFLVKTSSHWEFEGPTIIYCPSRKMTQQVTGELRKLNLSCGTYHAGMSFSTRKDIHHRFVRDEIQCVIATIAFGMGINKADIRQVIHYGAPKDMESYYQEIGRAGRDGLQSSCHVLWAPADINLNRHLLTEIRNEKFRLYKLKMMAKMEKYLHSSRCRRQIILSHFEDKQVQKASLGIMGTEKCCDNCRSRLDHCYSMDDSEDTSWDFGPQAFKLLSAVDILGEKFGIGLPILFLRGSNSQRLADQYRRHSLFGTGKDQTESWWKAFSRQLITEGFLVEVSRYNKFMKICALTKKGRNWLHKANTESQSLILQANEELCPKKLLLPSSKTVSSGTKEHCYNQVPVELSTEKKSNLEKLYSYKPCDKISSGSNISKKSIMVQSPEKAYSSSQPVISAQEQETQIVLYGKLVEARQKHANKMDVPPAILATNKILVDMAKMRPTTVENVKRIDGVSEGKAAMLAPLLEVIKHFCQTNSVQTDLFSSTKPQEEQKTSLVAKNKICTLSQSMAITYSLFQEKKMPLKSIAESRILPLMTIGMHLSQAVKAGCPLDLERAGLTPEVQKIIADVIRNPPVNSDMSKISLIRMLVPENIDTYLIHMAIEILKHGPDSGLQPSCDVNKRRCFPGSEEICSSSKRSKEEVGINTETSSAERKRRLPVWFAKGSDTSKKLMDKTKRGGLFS
Entry rule: numbers only, all in nM.

>  <COMPOUND>
Cc1nc2cc(S(=O)(=O)N(C)c3cnc([C@@H]4CCC[C@H](C(=O)Nc5ccc(C(F)(F)F)cc5F)[C@H]4C(=O)O)cn3)ccc2n1C (relative stereo)

>  <MEASUREMENT UNITS>
nM

>  <MEASUREMENT>
25.1

$$$$
>  <COMPOUND>
Cc1nc2cc(S(=O)(=O)N(C)c3ccc([C@@H]4C[C@@]5(CCCO5)C[C@H](C(=O)Nc5ccc(C(F)(F)F)cc5F)[C@H]4C(=O)O)cc3)ccc2n1C (stereo in doubt)

>  <MEASUREMENT UNITS>
nM

>  <MEASUREMENT>
63.1

$$$$
>  <COMPOUND>
Cc1nc2cc(S(=O)(=O)N(C)c3ccc([C@H]4CCC[C@@H](COc5ccc(C(F)(F)F)cc5O)[C@@H]4C(=O)O)cc3)ccc2n1C

>  <MEASUREMENT UNITS>
nM

>  <MEASUREMENT>
15.8

$$$$
>  <COMPOUND>
Cc1nc2cc(S(=O)(=O)N(C)c3ccc([C@@H]4C[C@H](C#N)C[C@H](C(=O)Nc5ccc(C(F)(F)F)cc5F)[C@H]4C(=O)O)cc3)ccc2n1C (single isomer, unassigned)

>  <MEASUREMENT UNITS>
nM

>  <MEASUREMENT>
100

$$$$
>  <COMPOUND>
Cc1nc2cc(S(=O)(=O)N(C)c3ccc([C@H]4CCC[C@@H](C(=O)Nc5ccc(C(C)C)cc5)[C@H]4C(=O)O)cc3)ccc2n1C (single isomer, unassigned) [Example 77]

>  <MEASUREMENT UNITS>
nM

>  <MEASUREMENT>
3.98

$$$$
>  <COMPOUND>
CC(C)(O)C#Cc1cc([C@H]2CCC[C@@H](C(=O)Nc3ccc(C(F)(F)F)cc3F)[C@@H]2C(=O)O)ccc1C(F)(F)F (racemic)

>  <MEASUREMENT UNITS>
nM

>  <MEASUREMENT>
251

$$$$

Data request, read-out IC50, for O=C(O)[C@@H]1[C@@H](c2ccc(-c3cnn(CC4CC4)c3)cc2)CCC[C@H]1C(=O)Nc1ccc(C(F)(F)F)cc1F 126

Data request, read-out IC50, for Cc1nc2cc(S(=O)(=O)N(C)c3ccc([C@@H]4C[C@H](OC(C)C)C[C@H](C(=O)Nc5ccc(C(F)(F)F)cc5F)[C@H]4C(=O)O)cc3)ccc2n1C (stereo in doubt) 158

Data request, read-out IC50, for O=C(O)[C@@H]1[C@@H](c2ccc(CC3CCNCC3)cc2)CCC[C@H]1C(=O)Nc1ccc(C(F)(F)F)cc1F 100000

Data request, read-out IC50, for Cc1nc2cc(S(=O)(=O)N(C)c3ccc([C@H]4C[C@H](NCC(F)(F)F)C[C@@H](C(=O)Nc5ccc(C(F)(F)F)cc5F)[C@@H]4C(=O)O)cc3)ccc2n1C (stereo in doubt) 1.58

Data request, read-out IC50, for Cc1nc2cc(S(=O)(=O)N(C)c3ccc([C@H]4CCC[C@@H](C(=O)Nc5ccc(C(F)(F)F)cc5F)[C@@H]4C(=O)O)cc3)cc(F)c2n1C 6.31

Data request, read-out IC50, for Cc1nc2cc(S(=O)(=O)N(C)c3ccc([C@@H]4CCC[C@H](C(=O)Nc5c(F)cc(C(C)C)cc5F)[C@H]4C(=O)O)cc3)ccc2n1C (single isomer, unassigned) 3.16

Data request, read-out IC50, for O=C(O)[C@@H]1[C@@H](c2ccc(-c3ccnnc3)cc2)CCC[C@H]1C(=O)Nc1ccc(C(F)(F)F)cc1F 5.01

Data request, read-out IC50, for CCOC1CC(C(=O)Nc2ccc(C(F)(F)F)cc2)C(C(=O)O)C(c2ccc(N(C)S(=O)(=O)c3ccc4c(c3)nc(C)n4C)cc2)C1 (stereo not drawn) 5.01

Data request, read-out IC50, for CN(C)Cc1cccc(S(=O)(=O)N(C)c2ccc([C@H]3CCC[C@@H](C(=O)Nc4ccc(C(F)(F)F)cc4F)[C@@H]3C(=O)O)cc2)c1 2

Data request, read-out IC50, for Cc1nc2cc(S(=O)(=O)N(C)c3ccc([C@@H]4C[C@H](OCC5CC6CCC(C5)O6)C[C@H](C(=O)Nc5ccc(C(F)(F)F)cc5F)[C@H]4C(=O)O)cc3)ccc2n1C (single isomer, unassigned) 1580

Data request, read-out IC50, for Cc1nc2c(F)c(S(=O)(=O)N(C)c3ccc([C@H]4CCC[C@@H](C(=O)Nc5ccc(C(F)(F)F)cc5F)[C@@H]4C(=O)O)cc3)ccc2n1C 3.98

Data request, read-out IC50, for O=C(Nc1ccc(C(F)(F)F)cc1)[C@@H]1CCC[C@H](c2ccc(Br)cc2)[C@@]1(F)C(=O)O (racemic) 5010

Data request, read-out IC50, for O=C(O)[C@@H]1[C@@H](c2ccc([C@H]3[C@@H]4CNCC[C@@H]43)cc2)CCC[C@H]1C(=O)Nc1ccc(C(F)(F)F)cc1F (racemic) 15800

Data request, read-out IC50, for Cc1nc2cc(S(=O)(=O)N(C)c3ccc([C@H]4C[C@@H](O)C[C@@H](C(=O)Nc5ccc(C(F)(F)F)cc5F)[C@H]4C(=O)O)cc3)ccc2n1C (single isomer, unassigned) [Example 143] 15.8

Data request, read-out IC50, for CN1CCN(c2cc(S(=O)(=O)N(C)c3ccc([C@H]4CCC[C@@H](C(=O)Nc5ccc(C(F)(F)F)cc5F)[C@@H]4C(=O)O)cc3)cc3ccoc23)CC1 6.31
